- System under test: T1, NHERF3_4, Q5T2W1
- T1 sequence (Q5T2W1 373-468, limits assumed, looked up): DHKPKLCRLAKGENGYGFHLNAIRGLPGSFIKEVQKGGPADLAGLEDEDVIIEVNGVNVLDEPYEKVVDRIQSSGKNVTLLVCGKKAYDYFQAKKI
- Protocol description: holdup assay
- Parameters: key: below the threshold = too weak to quantify, mostly under pKd 3.1 to 4
- Run conditions: plain residues with an end cap or a label only (N-terminal biotin on a linker: ttds)
Measurement name: pKd

Some binders with known pKd results, for comparison:
GQDSREETQL [KCNT2, Q6UVM3]: below the threshold
STLTIFETAL [ABCC4, O15439]: 4.78
SRPQRTQTQV [HPV67-E6, A4U7F2]: below the threshold
ERKLSSESQV [LRP4, O75096]: below the threshold

Then there is this binder:
Please look at this binder and report its pKd: PKTPPTDTSV [KIR3DL3, Q8N743] below the threshold
